Tested on: MDA-N
Assay: NCI tumour cell line growth inhibition, 48 h
propertyName: TGI (µM)
Give bare numbers, in µM.

>>> endpointresult("O=C1c2ccc3cc(CCl)cc(O)c3c2C(=O)c2cccc(O)c21")
0.314

With those in mind, consider the next compound.
Quick one: TGI for O=C1OC(=O)C2=C1C(c1cccs1)C=C(c1cccnc1)N2c1ccncc1 (stereo not given) ?
33.9

----------
Field: TGI. Provide a value for each of the compounds that follow.
Test system: NCI-H226 lung
Experiment: NCI tumour cell line growth inhibition, 48 h

>>> endpointresult("O=[N+]([O-])c1ccc(N=Nc2c(O)[nH]c3ccc(Br)cc23)cc1")
"37.2 µM"

Provide reported TGI for each item, in the same order as listed.
1. CCOc1ccc(NC(=O)/C(=N\N)C(C(=O)OC)c2nc3ccc(Cl)cc3[nH]c2=O)cc1 (stereo unspecified)
2. FC(F)(F)c1cccc2ns[s+]c12
3. COc1ccc(CN2C(=O)C(Cl)=C(Nc3cccc(O)c3)C2=O)cc1
4. CCOC(=O)C1(c2ccccc2)CCCNCC1 (stereo unspecified)
5. O=C(c1ccccc1)c1nc2ccc(Cl)cc2c2c1Cc1ccccc1-2
6. O=C(Nc1cccc(Cl)c1)Nc1cc2ncncc2cc1OCc1cccc(F)c1

1: > 100 µM; 2: > 100 µM; 3: 50.5 µM; 4: > 100 µM; 5: > 100 µM; 6: 9.19 µM
